# System: Acinetobacter baumannii ATCC 17978
# ASSAY: Inhibition of Acinetobacter baumannii ATCC 17978 OXA-24/40 expressed in Escherichia coli BL21 assessed as ratio of Kinact/Ki using nitrocefin as substrate measured after 15 mins by spectrophotometry analysis
MEASUREMENT NAME: Ratio (M⁻¹ s⁻¹)
Give the value, in units of M⁻¹ s⁻¹, as a plain number.

The examples below pair each entry with its known result.
- MOLECULAR STRING: "C[C@]1(COC(=O)Cc2ccc(O)c(O)c2)[C@H](C(=O)O)N2C(=O)/C(=C/c3nccc4ccsc34)[C@H]2S1(=O)=O"
  ASSAYED SYSTEM: "Acinetobacter baumannii ATCC 17978"
  UNIT SYMBOL: "M⁻¹ s⁻¹"
  OBSERVED RESULT: 47600
- MOLECULAR STRING: "COc1ccnc(/C=C2/C(=O)N3[C@@H](C(=O)O)[C@](C)(COC(=O)Cc4ccc(O)c(O)c4)S(=O)(=O)[C@H]23)c1OC"
  ASSAYED SYSTEM: "Acinetobacter baumannii ATCC 17978"
  UNIT SYMBOL: "M⁻¹ s⁻¹"
  OBSERVED RESULT: 83200

Next:
Qu. Recorded Ratio for Cn1cc(-c2ccnc(/C=C3/C(=O)N4[C@@H](C(=O)O)[C@](C)(COC(=O)Cc5ccc(O)c(O)c5)S(=O)(=O)[C@H]34)c2)cn1 , please?
Ans. 110000

###

# ASSAYED SYSTEM: Beta-lactamase TEM-1 (Escherichia coli) (UniProt Q4GY26)
# ASSAY: Inhibition of TEM-1 in penicillin-resistant Escherichia coli TG1 transfected with pBGS18 plasmid encoding replication origin and kanamycin resistance assessed as potentiation of ampicillin-induced antibacterial activity by measuring ampicillin MIC at 16 ug/mL in Mueller-Hinton broth by CLSI protocol based method (Rvb > 1024 ug/mL)
MEASUREMENT NAME: MIC (µg/mL)
Give the value, in units of µg/mL, as a plain number.

- MOLECULAR STRING: "C[C@]1(COC(=O)Cc2ccc(O)c(O)c2)[C@H](C(=O)O)N2C(=O)/C(=C/c3ccccn3)[C@H]2S1(=O)=O"
  ASSAYED SYSTEM: "Beta-lactamase TEM-1 (Escherichia coli) (UniProt Q4GY26)"
  UNIT SYMBOL: "µg/mL"
  OBSERVED RESULT: 2

Qu. Recorded MIC for C[C@]1(COC(=O)Cc2ccc(O)c(O)c2)[C@H](C(=O)O)N2C(=O)/C(=C/c3nccc4ccsc34)[C@H]2S1(=O)=O , please?
Ans. 2

Qu. Recorded MIC for C[C@]1(COC(=O)Cc2ccc(O)c(O)c2)[C@H](C(=O)O)N2C(=O)/C(=C/c3cc4ccccc4cn3)[C@H]2S1(=O)=O , please?
Ans. 4

Qu. Recorded MIC for C[C@]1(COC(=O)Cc2ccc(O)c(O)c2)[C@H](C(=O)O)N2C(=O)/C(=C/c3ccc(F)cn3)[C@H]2S1(=O)=O , please?
Ans. 2

Qu. Recorded MIC for Cn1cc(-c2ccnc(/C=C3/C(=O)N4[C@@H](C(=O)O)[C@](C)(COC(=O)Cc5ccc(O)c(O)c5)S(=O)(=O)[C@H]34)c2)cn1 , please?
Ans. 2

Qu. Recorded MIC for C[C@]1(COC(=O)Cc2ccc(O)c(O)c2)[C@H](C(=O)O)N2C(=O)/C(=C/c3cc(Br)ccn3)[C@H]2S1(=O)=O , please?
Ans. 2

Qu. Recorded MIC for COc1ccnc(/C=C2/C(=O)N3[C@@H](C(=O)O)[C@](C)(COC(=O)Cc4ccc(O)c(O)c4)S(=O)(=O)[C@H]23)c1OC , please?
Ans. 2

Qu. Recorded MIC for O=C(NC1CCNCC1)[C@@H]1CC[C@@H]2CN1C(=O)N2OS(=O)(=O)O , please?
Ans. 4
